System: HEK-293T
Assay: Multiplex assay against HEK293T
Assay type: toxicity, cell-based
Conditions: human, 12 h, 1 µM, compound concentration 1 uM, replicate 2
readout kind: Population Membrane Permeable-Phenotype (%)
Write the value in % as a bare number.

Given the entry Cc1c(P(=S)(c2ccccc2)c2ccccc2)n2ccccc2[n+]1C/C=C/c1ccccc1.[Br-] , report its measured Population Membrane Permeable-Phenotype (%). 0

// lookup Population Membrane Permeable-Phenotype (%) for Oc1cccc(-c2nc(N3CCOCC3)c3oc4ncccc4c3n2)c1 [PI-103] 10

# get_value(readout='Population Membrane Permeable-Phenotype (%)', item= CN1C(=O)[C@@H](NC(=O)c2cc3ccccc3[nH]2)N=C(c2ccccc2)c2ccccc21 [DEVAZEPIDE] ) 9

Which Population Membrane Permeable-Phenotype (%) reading was recorded for the molecule C[C@@H](Oc1cc(-n2cnc3ccc(CN4CCN(C)CC4)cc32)sc1C(N)=O)c1ccccc1C(F)(F)F [GSK-461364] ? 20

If you can, please state the reported Population Membrane Permeable-Phenotype (%) value of CN(c1cc(C(F)(F)F)nc(OCCC(=O)O)n1)c1cccc2c1CCC2 . 8

Which Population Membrane Permeable-Phenotype (%) is reported for this molecule? CC(C)c1cc(Nc2nc(N3CCC[C@H](N)C3)ncc2C(N)=O)cc(C(C)C)n1 8

# input molecule: CC(/C=C1\SC(=S)N(CCCC(=O)Nc2ccc(C(=O)O)c(O)c2)C1=O)=C\c1ccccc1 ; wanted: its Population Membrane Permeable-Phenotype (%) 9

Report Population Membrane Permeable-Phenotype (%) for Cc1c(Nc2ccc(S(=O)(=O)N3CCN(C)CC3)cc2F)nc2ccc(-c3cnn(C4CC4)c3)cn2c1=O please. 2

Give its Population Membrane Permeable-Phenotype (%) value. Item: CCCCCNC(=N)N/N=C/c1c[nH]c2ccc(OC)cc12.O=C(O)/C=C\C(=O)O [TEGASEROD MALEATE] 9

What Population Membrane Permeable-Phenotype (%) value was documented for this molecule, CCOC(=O)CCNc1cc(N2CCc3ccccc3CC2)nc(-c2ccccn2)n1 ? 1

Tell me the measured Population Membrane Permeable-Phenotype (%) of N#Cc1cccc(C(=O)Nc2cc(-c3ccccc3)nn2-c2ccccc2)c1 , please. 18

// Population Membrane Permeable-Phenotype (%) lookup, key: CC[C@H](Nc1ncnc2[nH]cnc12)c1nc2cccc(F)c2c(=O)n1-c1ccccc1 [IDELALISIB] 11

Population Membrane Permeable-Phenotype (%) for CC(C)[C@H](CO)Nc1nc(Nc2cccc(Cl)c2)c2ncn(C(C)C)c2n1 [PURVALANOLA] ? 7

Please give the measured Population Membrane Permeable-Phenotype (%) for this molecule: N#CCNC(=O)c1ccc(-c2ccnc(Nc3ccc(N4CCOCC4)cc3)n2)cc1 [MOMELOTINIB] 10

Numbers sourced from ChEMBL document CHEMBL4689842.
